# measuredOn: T1, Mu HER3: CD33-[Murine HER3, residues 20-643]-TAG (mouse, UniProt Q61526 20-643)
# T1 construct: also called mu HER3-Tag; not shown: C-terminal TAG (e.g. FLAG TAG)
# methodNotes: solution equilibrium titration (SET), IgG, ECL read-out
pKd: −log10 of the molar value.

{"columns": ["binder", "pKd"],
 "data": [
  ["MOR14537 (antibody, human IgG1, lambda, V domains shown, Tested as IgG) VH: QVQLVQSGAEVKKPGASVKVSCKASGYTFTSYDIHWVRQAPGQGLEWMGRIDPYSGNTNYAQKFQGRVTMTRDTSISTAYMELSRLRSDDTAVYYCARGSFYTRDSYFDVWGQGTLVTVSS VL: QSALTQPASVSGSPGQSITISCTGTSSDVGTYNQVSWYQQHPGKAPKLMIYGVSKRPSGVSNRFSGSKSGNTASLTISGLQAEDEADYYCSSATQKPDVTVFGGGTKLTVLG", 9.66],
  ["MOR14533 (antibody, human IgG1, kappa, V domains shown, Tested as IgG) VH: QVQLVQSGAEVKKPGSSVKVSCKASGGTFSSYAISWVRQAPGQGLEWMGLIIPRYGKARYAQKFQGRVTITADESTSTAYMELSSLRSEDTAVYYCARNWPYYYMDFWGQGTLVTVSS VL: EIVLTQSPATLSLSPGERATLSCRASQNIVFNLAWYQQKPGQAPRLLIYDASNRATGIPARFSGSGSGTDFTLTISSLEPEDFAVYYCQQTKSKPSPTFGQGTKVEIKR", 8.70],
  ["MOR12603 (antibody, human IgG1, kappa, V domains shown, Tested as IgG) VH: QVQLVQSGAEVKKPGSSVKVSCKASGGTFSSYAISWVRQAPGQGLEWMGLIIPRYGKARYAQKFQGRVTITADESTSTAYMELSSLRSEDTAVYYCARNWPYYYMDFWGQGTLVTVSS VL: DIVLTQSPATLSLSPGERATLSCRASQNIVFNLAWYQQKPGQAPRLLIYDASNRATGVPARFSGSGSGTDFTLTISSLEPEDFAVYYCQQTKNRPPTFGQGTKVEIKR", 8.39]
]}

The origin of these recorded values is patent US20130251703A1.
